I'd be grateful if you could share measured IC50 for these entries.
Test system: EW-16;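 further: growth inhibition of human EW-16 cells, read out as cell viability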
Assay: cells
Type: functional, cell-based, Homo sapiens
Conditions: Homo sapiens, EW-16
Description: SANGER: Inhibition of human EW-16 cell growth in a cell viability assay.

Here are 2 molecules together with their reported answers.
Reported IC50 for "CN(C)CCOc1ccc(-c2nc(-c3ccncc3)c(-c3ccc4c(c3)CC/C4=N\O)[nH]2)cc1" was > 5 µM

Briefly, IC50 measured for "O=S(=O)(O)c1ccc2cc(/N=N/c3cc(S(=O)(=O)O)c4cccnc4c3O)ccc2c1" : > 16 µM

From here, focus on the item given below.
IC50 for "Cc1ccc(C(=O)Nc2ccc(CN3CCN(C)CC3)c(C(F)(F)F)c2)cc1C#Cc1cnc2cccnn12" is > 0.512 µM

###

Test system: SW982;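 further: growth inhibition of SW982 cells, read out with a cell viability assay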
Assay: cells
Format: functional, cell-based
Conditions: Homo sapiens
Description: SANGER: Inhibition of human SW982 cell growth in a cell viability assay.
pIC50: −log10 of the molar value. Where a SMILES comes first, the peptide text is derived from it. The star is where a group is joined. Cbz = O=C(OCc1ccccc1)*
Would you kindly list pIC50 for each of these molecules?

pIC50 for C=CC(=O)N1CCCC(Nc2nc(Nc3ccc(N(C)C(=O)CC)cc3)nc3[nH]cnc23)C1 (centres undefined) is < 4.99

Go through the list and state pIC50 for each entry.
1. CC(C)C[C@@H](C=O)NC(=O)[C@H](CC(C)C)NC(=O)[C@H](CC(C)C)NC(=O)OCc1ccccc1 [MG-132] (Cbz-Leu-Leu-Leu-aldehyde)
2. CS(=O)(=O)N1CCN(Cc2cc3nc(-c4cccc5[nH]ncc45)nc(N4CCOCC4)c3s2)CC1
3. Cc1ccc(-n2nc(C(C)(C)C)cc2NC(=O)Nc2ccc(OCCN3CCOCC3)c3ccccc23)cc1

(A)
1. < 6.00
2. < 5.40
3. < 5.00

###

System: NCI-H1355;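 further: growth inhibition of human NCI-H1355 cells, read out by a cell viability assay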
Assay: cells
Format: functional, cell-based, Homo sapiens
Settings: Homo sapiens, NCI-H1355
Description: SANGER: Inhibition of human NCI-H1355 cell growth in a cell viability assay.
pIC50: −log10 of the molar value.
Give pIC50 for every item shown.

Answered cases to consult:
So for "C[C@@H](Oc1cc(-c2cnn(C3CCNCC3)c2)cnc1N)c1c(Cl)ccc(F)c1Cl" , the logged pIC50 turned out to be < 5.70

Lab note: measured pIC50 of "OC[C@H](Cc1ccccc1)Nc1nc(Oc2ccc3c(c2)CCC3)nc2c1ncn2Cc1ccc(-c2ccccc2)cc1" was < 4.99

The compound listed as "O=S(=O)(O)c1ccc2cc(/N=N/c3cc(S(=O)(=O)O)c4cccnc4c3O)ccc2c1" has a reported pIC50 of < 4.80

Continue with the compound presented below.
Reported pIC50 of "CS(=O)(=O)N1CCN(Cc2cc3nc(-c4cccc5[nH]ncc45)nc(N4CCOCC4)c3s2)CC1" : < 5.40

###

Tested on: RS4-11
Experiment: cells
Assay type: functional, cell-based, Homo sapiens
Conditions: Homo sapiens, RS4-11
Description: SANGER: Inhibition of human RS4-11 cell growth in a cell viability assay.
REPORTED METRIC: IC50

# IC50 of COc1cc(N2CCC(N3CCN(C)CC3)CC2)ccc1Nc1ncc(Cl)c(Nc2ccccc2S(=O)(=O)C(C)C)n1 [TAE-684] = > 2000 nM

The reported IC50 of the molecule CC(C)C[C@H](NC(=O)[C@H](Cc1ccccc1)NC(=O)c1cnccn1)B(O)O [BORTEZOMIB] was > 20 nM

Now examine the next entry.
Entry under test: Cc1ccc(-n2nc(C(C)(C)C)cc2NC(=O)Nc2ccc(OCCN3CCOCC3)c3ccccc23)cc1 [DORAMAPIMOD] . Its IC50 was > 10000 nM

###

Answer each item with its documented pIC50.
System: K562
Assay: cells
Type: functional, cell-based, Homo sapiens
Conditions: Homo sapiens, K562
Description: SANGER: Inhibition of human K-562 cell growth in a cell viability assay.
pIC50: −log10 of the molar value.

Worked examples follow.
Recorded pIC50 (compound "NC(=O)c1cccc(-c2cc(Nc3ccc(OC(F)(F)F)cc3)ncn2)c1" ): 6.44

Just so you know, measured pIC50 for NC(=O)c1ccc(N(C(N)=O)c2c(F)cccc2F)nc1-c1ccc(F)cc1F [VX-702] came out at < 5.70

The compound identified as Cc1ccc(-n2nc(C(C)(C)C)cc2NC(=O)Nc2ccc(OCCN3CCOCC3)c3ccccc23)cc1 [DORAMAPIMOD] registered its pIC50 at < 5.00

I would be grateful if you could provide pIC50 for each of the following entries.
1. O=S(=O)(O)c1ccc2cc(/N=N/c3cc(S(=O)(=O)O)c4cccnc4c3O)ccc2c1
2. NC1(c2ccc(-c3nc4ccn5c(=O)[nH]nc5c4cc3-c3ccccc3)cc2)CCC1 [MK-2206]
3. COc1ccc(-c2cc3nccn3c(Nc3ncccc3C(N)=O)n2)cc1OC

(A)
["< 4.80", "< 5.40", "< 5.10"]

###

Tested on: VM-CUB-1;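 further: cell viability assay measuring growth inhibition of the human VM-CUB-1 cell line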
Test: cells
Assay type: functional, cell-based
Details: Homo sapiens
Description: SANGER: Inhibition of human VM-CUB-1 cell growth in a cell viability assay.
pIC50: −log10 of the molar value.
Assign pIC50 to each entry below.

Use these answered entries as a reference point.
// field: pIC50; key: "COc1ccc(-c2cc3nccn3c(Nc3ncccc3C(N)=O)n2)cc1OC" ; value = < 5.10

Recorded pIC50 (compound CS(=O)(=O)N1CCN(Cc2cc3nc(-c4cccc5[nH]ncc45)nc(N4CCOCC4)c3s2)CC1 [PICTILISIB] ): < 5.40

Switching to the query record.
Documented pIC50 of CN(C)CCOc1ccc(-c2nc(-c3ccncc3)c(-c3ccc4c(c3)CC/C4=N\O)[nH]2)cc1 [SB590885] : < 5.30

###

For each of the compounds below, state its IC50.
Tested on: ES7
Assay: cells
Format: functional, cell-based, Homo sapiens
Details: Homo sapiens, ES7
Description: SANGER: Inhibition of human ES7 cell growth in a cell viability assay.

Noted for "CC1=C(/C=C/C(C)=C/C=C/C(C)=C/C(=O)O)C(C)(C)CCC1" : its IC50 reads > 10 µM

IC50 reported for this compound "NC1(c2ccc(-c3nc4ccn5c(=O)[nH]nc5c4cc3-c3ccccc3)cc2)CCC1" : > 4 µM

Shift focus to the following entry.
The compound "C[C@@H](Oc1cc(-c2cnn(C3CCNCC3)c2)cnc1N)c1c(Cl)ccc(F)c1Cl" showed IC50 equal to > 2 µM

###

Tested on: COLO-320-HSR;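 further: growth inhibition of COLO-320-HSR cells, determined with a cell viability assay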
Experiment: cells
Type: functional, cell-based, Homo sapiens
Settings: Homo sapiens, COLO-320-HSR
Description: SANGER: Inhibition of human COLO-320-HSR cell growth in a cell viability assay.
REPORTED METRIC: IC50

The reported value for "CC1(C)CCC(c2ccc(Cl)cc2)=C(CN2CCN(c3ccc(C(=O)NS(=O)(=O)c4ccc(N[C@H](CCN5CCOCC5)CSc5ccccc5)c(S(=O)(=O)C(F)(F)F)c4)cc3)CC2)C1" in terms of IC50 is > 2 µM

IC50 recorded for this compound, "CS(=O)(=O)N1CCN(Cc2cc3nc(-c4cccc5[nH]ncc45)nc(N4CCOCC4)c3s2)CC1" , is > 4 µM

Field IC50 (entry "CC1=C(/C=C/C(C)=C/C=C/C(C)=C/C(=O)O)C(C)(C)CCC1" ) reads > 10 µM

Further cases:
Lab note: measured IC50 of "Cc1ccc(C(=O)Nc2ccc(CN3CCN(C)CC3)c(C(F)(F)F)c2)cc1C#Cc1cnc2cccnn12" was > 0.512 µM

###

Tested on: KP-N-YS;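 further: cell viability assay measuring inhibition of cell line growth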
Assay: cells
Assay type: functional, cell-based, Homo sapiens
Conditions: Homo sapiens, KP-N-YS
Description: SANGER: Inhibition of human KP-N-YS cell growth in a cell viability assay.
REPORTED METRIC: IC50

For reference, reported IC50 for "Nc1ccccc1NC(=O)c1ccc(CNC(=O)OCc2cccnc2)cc1" stands at > 5 µM

// IC50 lookup, molecule = "CN(C)CCOc1ccc(-c2nc(-c3ccncc3)c(-c3ccc4c(c3)CC/C4=N\O)[nH]2)cc1" , result: > 5 µM

Continuing:
// field: IC50; key: "CS(=O)(=O)N1CCN(Cc2cc3nc(-c4cccc5[nH]ncc45)nc(N4CCOCC4)c3s2)CC1" ; value = > 4 µM

###

Record form. Attribute: IC50. Fill in for each entry.
Tested on: EW-3;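 further: cell viability assay read-out, IC50 reflects inhibition of growth of the EW-3 cells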
Experiment: cells
Type: functional, cell-based, Homo sapiens
Conditions: Homo sapiens, EW-3
Description: SANGER: Inhibition of human EW-3 cell growth in a cell viability assay.

Known IC50 results, listed for orientation:
So the reported IC50 for "COc1cc(N2CCC(N3CCN(C)CC3)CC2)ccc1Nc1ncc(Cl)c(Nc2ccccc2S(=O)(=O)C(C)C)n1" , on EW-3, turned out to be > 2 µM

Entry C=CC(=O)N1CCCC(Nc2nc(Nc3ccc(N(C)C(=O)CC)cc3)nc3[nH]cnc23)C1 (stereo not drawn) ; assay system EW-3; IC50 recorded at > 10.2 µM

Continuing:
Query "COc1ccc(N(C(=O)Oc2c(C)cccc2C)c2ccnc(Nc3ccc(N4CCN(C)CC4)cc3)n2)c(OC)c1" on EW-3; IC50 returned: > 5.12 µM

###

System: BEN
Experiment: cells
Type: functional, cell-based
Settings: Homo sapiens
Description: SANGER: Inhibition of human BEN cell growth in a cell viability assay.
REPORTED METRIC: IC50

See these solved cases before continuing.
For record "O=S(=O)(O)c1ccc2cc(/N=N/c3cc(S(=O)(=O)O)c4cccnc4c3O)ccc2c1" the listed IC50 is > 16 µM

response.value for "OC[C@H](Cc1ccccc1)Nc1nc(Oc2ccc3c(c2)CCC3)nc2c1ncn2Cc1ccc(-c2ccccc2)cc1" (field: IC50) = > 10.2 µM

Per the records, this molecule ( "CC1=C(/C=C/C(C)=C/C=C/C(C)=C/C(=O)O)C(C)(C)CCC1" ) has IC50 equal to > 10 µM

Now for a further molecule.
get_value(item= "NC(=O)Nc1cc(-c2cccc(F)c2)sc1C(=O)N[C@H]1CCCNC1" , readout=IC50) returns > 2 µM
